- assay-summary: in vivo
- condition-info: female, C57BL/6J, mouse
metric-name: AUC(0-t) (ng·h/mL)
Response body: numeric value in ng·h/mL, unit text excluded.

Name the reported AUC(0-t) value associated with the compound `COc1nc2ccc(Br)cc2cc1[C@@H](c1ccccc1)[C@@](O)(CCN(C)C)c1cccc2ccccc12`
2930

====

- condition-info: mouse, hepatocytes
metric-name: CLint, 8HUM (mL/min/g liver)
Response body: numeric value in mL/min/g liver, unit text excluded.

// known answers, use as guide
O=C(O)Cc1ccccc1Nc1c(Cl)cccc1Cl: 1.8
OC(c1cc(C(F)(F)F)nc2c(C(F)(F)F)cccc12)C1CCCCN1 (stereo not shown): 0.5
CC(=O)NC[C@H]1CN(c2ccc(N3CCOCC3)c(F)c2)C(=O)O1: 0.5
CCOc1ccc2ccc(=O)oc2c1: 13.8
CCOc1ccc(NC(C)=O)cc1: 1.3

Name the reported CLint, 8HUM value associated with the compound `CC[C@H]1OC(=O)[C@H](C)[C@@H](O[C@H]2C[C@@](C)(OC)[C@@H](O)[C@H](C)O2)[C@H](C)[C@@H](O[C@@H]2O[C@H](C)C[C@H](N(C)C)[C@H]2O)[C@](C)(O)C[C@@H](C)C(=O)[C@H](C)[C@@H](O)[C@]1(C)O`
0.5

Please answer likewise for `CO[C@H]1/C=C/O[C@@]2(C)Oc3c(C)c(O)c4c(c3C2=O)C2=NC3(CCN(CC(C)C)CC3)NC2=C(NC(=O)/C(C)=C\C=C\[C@H](C)[C@H](O)[C@@H](C)[C@@H](O)[C@@H](C)[C@H](OC(C)=O)[C@@H]1C)C4=O`
0.7

====

- condition-info: hepatocytes
metric-name: CLint, Human (mL/min/g liver)
Response body: numeric value in mL/min/g liver, unit text excluded.

CO[C@H]1/C=C/O[C@@]2(C)Oc3c(C)c(O)c4c(c3C2=O)C2=NC3(CCN(CC(C)C)CC3)NC2=C(NC(=O)/C(C)=C\C=C\[C@H](C)[C@H](O)[C@@H](C)[C@@H](O)[C@@H](C)[C@H](OC(C)=O)[C@@H]1C)C4=O: 1
CC[C@H]1OC(=O)[C@H](C)[C@@H](O[C@H]2C[C@@](C)(OC)[C@@H](O)[C@H](C)O2)[C@H](C)[C@@H](O[C@@H]2O[C@H](C)C[C@H](N(C)C)[C@H]2O)[C@](C)(O)C[C@@H](C)C(=O)[C@H](C)[C@@H](O)[C@]1(C)O: 0.5
OC(c1cc(C(F)(F)F)nc2c(C(F)(F)F)cccc12)C1CCCCN1 (stereo not shown): 0.5

Name the reported CLint, Human value associated with the compound `CCOc1ccc2ccc(=O)oc2c1`
8.2

====

# key: entry, value: CLint, WT
- condition-info: mouse, microsomes
Response body: numeric value in mL/min/g liver, unit text excluded.

// known answers, use as guide
CC(=O)NC[C@H]1CN(c2ccc(N3CCOCC3)c(F)c2)C(=O)O1: 0.5
Cc1c(O)cccc1C(=O)N[C@@H](CSc1ccccc1)[C@H](O)CN1C[C@H]2CCCC[C@H]2C[C@H]1C(=O)NC(C)(C)C: 50
CC[C@@H]([C@H](C)O)n1ncn(-c2ccc(N3CCN(c4ccc(OC[C@@H]5CO[C@@](Cn6cncn6)(c6ccc(F)cc6F)C5)cc4)CC3)cc2)c1=O: 0.5
O=[N+]([O-])c1cn2c(n1)OC[C@@H](OCc1ccc(OC(F)(F)F)cc1)C2: 0.5

// switching to the query compound
Name the reported CLint, WT value associated with the compound `[H]/N=C(\N/C(=N/[H])Nc1ccc(Cl)cc1)NC(C)C`
0.5

====

- assay-summary: Oral pharmacokinetics in WT mice
- condition-info: female, mouse, whole blood
metric-name: CL/F
The reply should read as a number followed by its unit.

O=[N+]([O-])c1cn2c(n1)OC[C@@H](OCc1ccc(OC(F)(F)F)cc1)C2: 4.43 mL/min/kg

Name the reported CL/F value associated with the compound `C[C@]1(COc2ccc(N3CCC(Oc4ccc(OC(F)(F)F)cc4)CC3)cc2)Cn2cc([N+](=O)[O-])nc2O1`
110 mL/min/kg

====

- assay-summary: in vivo
- condition-info: female, mouse, po
metric-name: CL/F
The reply should read as a number followed by its unit.

Name the reported CL/F value associated with the compound CO[C@H]1/C=C/O[C@@]2(C)Oc3c(C)c(O)c4c(c3C2=O)C2=NC3(CCN(CC(C)C)CC3)NC2=C(NC(=O)/C(C)=C\C=C\[C@H](C)[C@H](O)[C@@H](C)[C@@H](O)[C@@H](C)[C@H](OC(C)=O)[C@@H]1C)C4=O [Rifabutin]
24.8 mL/min/kg

====

# key: entry, value: CLint, Human
- condition-info: microsomes
Response body: numeric value in mL/min/g liver, unit text excluded.

// known answers, use as guide
Cc1c(O)cccc1C(=O)N[C@@H](CSc1ccccc1)[C@H](O)CN1C[C@H]2CCCC[C@H]2C[C@H]1C(=O)NC(C)(C)C: 50
CC[C@H]1OC(=O)[C@H](C)[C@@H](O[C@H]2C[C@@](C)(OC)[C@@H](O)[C@H](C)O2)[C@H](C)[C@@H](O[C@@H]2O[C@H](C)C[C@H](N(C)C)[C@H]2O)[C@](C)(O)C[C@@H](C)C(=O)[C@H](C)[C@@H](O)[C@]1(C)O: 3.3
CO[C@H]1/C=C/O[C@@]2(C)Oc3c(C)c(O)c4c(c3C2=O)C2=NC3(CCN(CC(C)C)CC3)NC2=C(NC(=O)/C(C)=C\C=C\[C@H](C)[C@H](O)[C@@H](C)[C@@H](O)[C@@H](C)[C@H](OC(C)=O)[C@@H]1C)C4=O: 1.1

// switching to the query molecule
Name the reported CLint, Human value associated with the molecule `CO[C@H]1C[C@H](O[C@H]2[C@H](C)[C@@H](O[C@@H]3O[C@H](C)C[C@H](N(C)C)[C@H]3O)[C@@H](C)C[C@@]3(CO3)C(=O)[C@H](C)[C@@H](O)[C@@H](C)[C@@H](C)OC(=O)[C@@H]2C)O[C@@H](C)[C@@H]1O`
18.5
